# Test system: MDCK cells
# test settings: high-nontoxic concentration, MDCK cells
# HNTC (μM) MDCK Cells listing for each entry below
reported endpoint: HNTC (μM) MDCK Cells (µM)

molecule="CCC(C)C(N)C(=O)NC(C)C12CC3CC(CC(C3)C1)C2 (stereo not shown) [Compound 4c, Ile-Rim]" censoring_sign== readout_value=5.33
molecule="CC(N)C(=O)NC(C)C12CC3CC(CC(C3)C1)C2 (stereo not shown) [Compound 4a, Ala-Rimantadine]" censoring_sign== readout_value=14.65
molecule="CC(C)[C@H](NC(=N)N)C(=O)NC12CC3CC(CC(C3)C1)C2 [Compound 7h, Gua-Val-Am]" censoring_sign=> readout_value=100
molecule="CC(NC(=O)CCN)C12CC3CC(CC(C3)C1)C2 (stereo not drawn) [Compound 4i, β-Ala-Rimantadine]" censoring_sign== readout_value=20.78

###

# pIC50 listing for each entry below
# System: influenza virus A/H3N2, strain Hong Kong 68
# assay overview: Antiviral activity against influenza virus A/H3N2, strain Hong Kong 68 (crystal violet uptake assay in MDCK cells)
# Type: cell-based
# test settings: Table 4, against A/Hong Kong/68, QSAR numbering; read-out: IC50
# Description: The synthesized compounds were tested for antiviral activity against the influenza virus A/H3N2, strain Hong Kong 68. In order to identify new potential antiviral drugs, small amounts of extracts or compounds have to be examined for cytotoxicity and antiviral activity in primary screening using a rapid, easy, inexpensive and highly standardized test system. […] Then the optical density of individual wells was quantified spectrophotometrically at 540/630 nm and analyzed with the DIAS. […]
pIC50: −log10 of the molar value.
reported endpoint: pIC50

smiles_structure=CC(C)[C@H](NC(=N)N)C(=O)NC12CC3CC(CC(C3)C1)C2 reported_endpoint=pIC50 readout_value=4.77
smiles_structure=C[C@H](NC(=N)N)C(=O)NC12CC3CC(CC(C3)C1)C2 reported_endpoint=pIC50 readout_value=4.74

###

# CC50 listing for each entry below
# assay overview: in vitro
# test settings: dog
reported endpoint: CC50

molecule="CC(NC(=O)CN)C12CC3CC(CC(C3)C1)C2 (stereo not shown)" readout_value="> 100 µM"
molecule="CC(N)C(=O)NC(C)C12CC3CC(CC(C3)C1)C2 (stereo not shown)" readout_value="> 100 µM"
molecule="NC(Cc1ccccc1)C(=O)NC12CC3CC(CC(C3)C1)C2 (stereo not shown)" readout_value="89.4 µM"
molecule="CC(C)CC(N)C(=O)NC(C)C12CC3CC(CC(C3)C1)C2 (stereo not shown)" readout_value="> 100 µM"

###

# Tested on: influenza virus A/H3N2, strain Hong Kong 68
# assay overview: Antiviral activity against influenza virus A/H3N2, strain Hong Kong 68 (crystal violet uptake assay in MDCK cells)
# Assay type: cell-based
# test settings: MDCK; Table 4, against A/Hong Kong/68, QSAR numbering; read-out: IC50
pIC50: −log10 of the molar value.
reported endpoint: pIC50

compound="NC(Cc1ccccc1)C(=O)NC12CC3CC(CC(C3)C1)C2 (centres unmarked)" readout_value=6.12
compound="CC(C)C(N)C(=O)NC12CC3CC(CC(C3)C1)C2 (centres unmarked)" readout_value=5.88
compound="NC12CC3CC(CC(C3)C1)C2 [Amantadine, reference compound]" readout_value=6.41
compound="NC(Cc1ccc(F)cc1)C(=O)NC12CC3CC(CC(C3)C1)C2 (centres unmarked)" readout_value=6.09
compound="CC(N)C(=O)NC12CC3CC(CC(C3)C1)C2 (centres unmarked)" readout_value=5.85

###

# assay overview: in vitro
# Type: in vitro ADME
# test settings: human, plasma
# Method: The separation of glycyl-rimantadine (4b) and Ala-rimantadine (4a) (internal standard, IS) was performed on an ultra-high-performance liquid chromatography (UHPLC) system (Bruker Daltonics, Germany), utilizing an RP Kinetex C18 column 100 mm × 2.1 mm, 2.6 μm, with a proguard column 2.1 mm (Phenomenex, USA). The mobile phase was composed of formic acid 0.1% in water (A) and acetonitrile (B). […]
reported endpoint: remaining at 6 h, 1.58 µg/mL (%)

molecule="CC(NC(=O)CN)C12CC3CC(CC(C3)C1)C2 (stereo not shown) [Compound 4b, glycyl-rimantadine]" reported_endpoint="remaining at 6 h, 1.58 µg/mL" readout_value=97.5

###

# System: MDCK cells
# test settings: high-nontoxic concentration, MDCK cells
Binarize HNTC (μM) MDCK Cells at 10 µM; below is class 1, at or above is class 0.

molecule="CC(NC(=O)CCNC(=N)N)C12CC3CC(CC(C3)C1)C2 (stereo not shown)" test_target="MDCK cells" assigned_category="class 0"
molecule="CC(C)CC(N)C(=O)NC(C)C12CC3CC(CC(C3)C1)C2 (stereo not shown)" test_target="MDCK cells" assigned_category="class 0"
molecule="CC(NC(=O)C(N)Cc1ccc(F)cc1)C12CC3CC(CC(C3)C1)C2 (stereo not shown)" test_target="MDCK cells" assigned_category="class 1"
molecule=C[C@H](NC(=N)N)C(=O)NC12CC3CC(CC(C3)C1)C2 test_target="MDCK cells" assigned_category="class 0"
molecule="NC(Cc1ccc(F)cc1)C(=O)NC12CC3CC(CC(C3)C1)C2 (stereo not shown)" test_target="MDCK cells" assigned_category="class 0"
molecule="CC(NC(=O)CN)C12CC3CC(CC(C3)C1)C2 (stereo not shown)" test_target="MDCK cells" assigned_category="class 0"
molecule="CC(NC(=O)[C@H](Cc1ccc(O)cc1)NC(=N)N)C12CC3CC(CC(C3)C1)C2 (stereo partly shown)" test_target="MDCK cells" assigned_category="class 0"
molecule="CC(NC(=O)[C@H](C)NC(=N)N)C12CC3CC(CC(C3)C1)C2 (stereo partly shown)" test_target="MDCK cells" assigned_category="class 0"
molecule="CC(NC(=O)[C@H](N)Cc1ccc(F)cc1)C12CC3CC(CC(C3)C1)C2 (stereo partly shown)" test_target="MDCK cells" assigned_category="class 1"
molecule="CCOC(=O)C1=C[C@@H](OC(CC)CC)[C@H](NC(C)=O)[C@@H](N)C1 [Oseltamivir, reference compound]" test_target="MDCK cells" assigned_category="class 0"
molecule="CC(C)C(N)C(=O)NC12CC3CC(CC(C3)C1)C2 (stereo not shown)" test_target="MDCK cells" assigned_category="class 0"
molecule="CC(N)C(=O)NC12CC3CC(CC(C3)C1)C2 (stereo not shown)" test_target="MDCK cells" assigned_category="class 0"
molecule="CC(NC(=O)C(N)Cc1ccccc1)C12CC3CC(CC(C3)C1)C2 (stereo not shown)" test_target="MDCK cells" assigned_category="class 1"
molecule="NC(Cc1ccccc1)C(=O)NC12CC3CC(CC(C3)C1)C2 (stereo not shown)" test_target="MDCK cells" assigned_category="class 0"

###

# assay overview: in vitro
# test settings: dog
# CC50 listing for each entry below
reported endpoint: CC50 (µM)

compound="NC(Cc1ccc(F)cc1)C(=O)NC12CC3CC(CC(C3)C1)C2 (stereo not drawn)" reported_endpoint=CC50 censoring_sign== readout_value=83.6
compound="CC(N)C(=O)NC12CC3CC(CC(C3)C1)C2 (stereo not drawn)" reported_endpoint=CC50 censoring_sign=> readout_value=100
compound="CCOC(=O)C1=C[C@@H](OC(CC)CC)[C@H](NC(C)=O)[C@@H](N)C1 [Oseltamivir, reference compound]" reported_endpoint=CC50 censoring_sign=> readout_value=100
compound="CC(NC(=O)C(N)Cc1ccccc1)C12CC3CC(CC(C3)C1)C2 (stereo not drawn)" reported_endpoint=CC50 censoring_sign== readout_value=21.9
compound="CC(NC(=O)CCN)C12CC3CC(CC(C3)C1)C2 (stereo not drawn)" reported_endpoint=CC50 censoring_sign=> readout_value=100
compound="CC(NC(=O)C(N)Cc1ccc(O)cc1)C12CC3CC(CC(C3)C1)C2 (stereo not drawn)" reported_endpoint=CC50 censoring_sign=> readout_value=100
compound="NC12CC3CC(CC(C3)C1)C2 [Amantadine, reference compound]" reported_endpoint=CC50 censoring_sign=> readout_value=100
compound="CC(C)C(N)C(=O)NC(C)C12CC3CC(CC(C3)C1)C2 (stereo not drawn)" reported_endpoint=CC50 censoring_sign== readout_value=70.3
compound="CC(C)C(N)C(=O)NC12CC3CC(CC(C3)C1)C2 (stereo not drawn)" reported_endpoint=CC50 censoring_sign=> readout_value=100
compound="CC(NC(=O)C(N)Cc1ccc(F)cc1)C12CC3CC(CC(C3)C1)C2 (stereo not drawn)" reported_endpoint=CC50 censoring_sign== readout_value=15.5
compound="CCC(C)C(N)C(=O)NC(C)C12CC3CC(CC(C3)C1)C2 (stereo not drawn)" reported_endpoint=CC50 censoring_sign== readout_value=58.4
compound="CC(NC(=O)[C@H](N)Cc1ccc(F)cc1)C12CC3CC(CC(C3)C1)C2 (stereo partly drawn)" reported_endpoint=CC50 censoring_sign== readout_value=19.9

###

# assay overview: in vitro
# Type: in vitro ADME
# test settings: human, plasma
reported endpoint: remaining at 24 h, 1.58 µg/mL (%)

compound="CC(NC(=O)CN)C12CC3CC(CC(C3)C1)C2 (stereo not shown) [Compound 4b, glycyl-rimantadine]" unit_of_measure=% readout_value=83.7
